Exercise: for every item that follows, state its recorded GI50.
test system: SF-539; assay: NCI tumour cell line growth inhibition, 48 h
Active and inactive are the calls of the source. Cut-off read from the data, not from the text of the source: active = GI50 up to about 1.1 µM and inactive = higher.

## Input Retrieve GI50 measured for C[N+](C)(C)CC1CCCC/C1=N\OC(=O)c1ccccc1 (stereo not given) and print it.
## Output > 100 µM (inactive)

## Input Retrieve GI50 measured for `c1ccc2c(c1)c1ccccc1c1n[se]nc21` and print it.
## Output 34.6 µM (inactive)

## Input Retrieve GI50 measured for `Cc1ccc2c(c1)-c1c(C#N)c(N)nc(-c3ccc(Cl)cc3)c1CCS2(=O)=O` and print it.
## Output 3.77 µM (inactive)

## Input Retrieve GI50 measured for `CN1CCN([C@H]2C[C@H]3[C@@H]4CC=C5C[C@@H](N6CCCC6)CC[C@]5(C)[C@H]4CC[C@]3(C)[C@H]2O)CC1` and print it.
## Output 16.2 µM (inactive)

## Input Retrieve GI50 measured for `Cc1cccc(C)c1NC(=O)C(=O)Nn1c(NN)nc2ccccc2c1=O` and print it.
## Output > 100 µM (inactive)

## Input Retrieve GI50 measured for `O=C1C(Cl)=C(N2CCC[C@H]2CO)C(=O)c2c(O)ccc(O)c21` and print it.
## Output > 10 µM (inactive)

## Input Retrieve GI50 measured for CCN(CC)Cc1nc(C2CCC([N+](=O)[O-])O2)no1 (stereo not given) and print it.
## Output 28.2 µM (inactive)

## Input Retrieve GI50 measured for `COc1cc(OCc2ccc3nc(-c4ccccc4)c(Cl)nc3c2)cc(OC)c1OC` and print it.
## Output 31.2 µM (inactive)

## Input Retrieve GI50 measured for COC(=O)C1CC(C(=O)OC)c2nc3cc([N+](=O)[O-])ccc3nc21 (stereo not given) and print it.
## Output 41 µM (inactive)

## Input Retrieve GI50 measured for `Cc1cccc(Nc2nc3ccccc3nc2NS(=O)(=O)c2ccccc2)c1` and print it.
## Output 33.8 µM (inactive)

## Input Retrieve GI50 measured for CC(Nc1ccc(Cl)c(Cl)c1)c1ccncc1 (stereo not given) and print it.
## Output 30.8 µM (inactive)

## Input Retrieve GI50 measured for `O=C(/C=C/c1ccc(Cl)cc1)c1nc2ccccc2[nH]1` and print it.
## Output 6.98 µM (inactive)

## Input Retrieve GI50 measured for `C=C1[C@H](OC(=O)C(C)C)[C@@H](OC(C)=O)[C@@H](OC(C)=O)C(C)(C)[C@@H]2O[C@H]2[C@@H](C)C(=O)[C@@]2(OC(C)=O)C[C@@](C)(OC(C)=O)[C@H](OC(C)=O)[C@@H]2[C@H]1OC(C)=O` and print it.
## Output > 100 µM (inactive)

## Input Retrieve GI50 measured for COC(=O)C1CCC(=O)N1/C(C)=N/NC(=O)Nc1ccc(Cl)c(Cl)c1 (stereo not given) and print it.
## Output > 100 µM (inactive)

## Input Retrieve GI50 measured for `COC(=O)c1cc(Br)c(Br)n1C` and print it.
## Output > 100 µM (inactive)

## Input Retrieve GI50 measured for OC1c2ccccc2CC12Cc1ccccc1C2 (stereo not given) and print it.
## Output > 100 µM (inactive)

## Input Retrieve GI50 measured for `O=C(O)c1ccc(Nc2ccnc3cc(Cl)ccc23)cc1O` and print it.
## Output 11.1 µM (inactive)

## Input Retrieve GI50 measured for `COC(=O)/C1=C/C2CC(/C=C(/c3ccccc3)C(=O)O1)C2` and print it.
## Output 33.3 µM (inactive)

## Input Retrieve GI50 measured for CC(=O)OC1(C)N=NC2(CCCCC2)O1 (stereo not given) and print it.
## Output > 100 µM (inactive)

## Input Retrieve GI50 measured for `COc1ccc(/C=C2\C[C@H]3[C@@H]4CC=C5C[C@@H](O)CC[C@]5(C)[C@H]4CC[C@]3(C)\C2=N\O)cc1` and print it.
## Output 21.8 µM (inactive)
